Where these numbers come from: paper PMC12136788

Entries and their binding signal values follow.
- experimental target: T1, UNK ZnF1-6 (called full-length) (human, UniProt Q9C0B0 30-357)
- T1 sequence: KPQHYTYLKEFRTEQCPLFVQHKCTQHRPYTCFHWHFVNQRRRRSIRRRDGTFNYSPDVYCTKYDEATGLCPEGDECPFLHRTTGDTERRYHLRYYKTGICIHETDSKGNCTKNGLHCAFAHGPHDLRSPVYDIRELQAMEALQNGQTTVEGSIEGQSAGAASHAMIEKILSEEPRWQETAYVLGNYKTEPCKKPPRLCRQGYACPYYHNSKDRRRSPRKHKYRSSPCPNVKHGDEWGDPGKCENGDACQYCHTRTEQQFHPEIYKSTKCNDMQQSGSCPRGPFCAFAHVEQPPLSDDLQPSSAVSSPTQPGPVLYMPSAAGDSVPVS
- assay: nsRBNS (natural sequence RNA bind-n-seq); RBNS binding buffer (assumed for nsRBNS): 25 mM Tris pH 7.5, 150 mM KCl, 3 mM MgCl2, 0.01% Triton X-100, 500 ug/ml BSA, 20 U/ml SUPERase-In, 4 C; UNK is unkempt and MSI1 is Musashi-1; names of the RNAs are library labels; protein concentration not given here; high values mean tight binding
Over roughly 5,800 sequences, “enrichment r” has its median near 0.68; the highest 2% begin near 11. Many of the other results were omitted from the sample, so the highest values are more common in it than they were.
Response body: numeric value in enrichment R, unit text excluded.

Prompt line: Look at this binder and give its reported binding signal. chr10:11920118:11920232:-|3pUTR|ENSG00000151461|unk|FALSE|unique (ssRNA) RNA: GGGAGUUCUACAGUCCGACGAUCGUAGUAUAUUUAGUCGGAGAGCACAUCUGUAUGCGACAACUUGAUUACAUCUUUUUUUCUAGCUAUUUUGCAUUUUUUCUUUUACCAUGUUUCAGUUUCUGCAUGUAGAUUUAAAUAAAACAACAGAGGAUUGAGCAUCA
Response line: 21.9

Prompt line: // repeat for ENSG00000136451:be:win_3251|3pUTR|ENSG00000136451|bound_else_gene|NA|bound_elsewhere_windowed (ssRNA) RNA: GGGAGUUCUACAGUCCGACGAUCCUUAGUGUAAAAUAAUUUUAUAAAUGAUCUUUUGUACUUUAGGACAUUAAAUUGUACAACUUUUGUAUAUAUAAAAGCUUAGGAACUUUCUGUUUAGCAGGAAGGCAACACAUUCCUACACAACAGAGGAUUGAGCAUCA and report
Response line: 6.05

Prompt line: // repeat for chr11:95167508:95167609:-|3pUTR|ENSG00000149212|unk|FALSE|unique (ssRNA) RNA: GGGAGUUCUACAGUCCGACGAUCAAUAAUGGAGACUGAAUGAGGCGGUUUGUAUUAAAUUAUAUGCCAUGAAGUGUUCAUUUUAGCUUUAACCUAAUUAUGACUGUACCACCAUGAAGUACAGAAUGAAAAAUUAUAUAUAUGCAACAGAGGAUUGAGCAUCA and report
Response line: 8.52

Prompt line: // repeat for chr17:57972098:57972209:-|3pUTR|ENSG00000136451|unk|FALSE|bound_elsewhere (ssRNA) RNA: GGGAGUUCUACAGUCCGACGAUCCUAGAAUGUGGUUGUCAGAACCCUGAAAGUAUUAGUUCUAAAAAAAAAAAGAUAUAUACUAGAAGUAAUUGUUUUAUCAAUUCAUUGUAUAAUAAACAGGAGUGAGACUUCAUUGUAUGACAACAGAGGAUUGAGCAUCA and report
Response line: 4.83

Prompt line: // repeat for chr5:159157431:159157536:-|3pUTR|ENSG00000145860|unk|total|mutant (ssRNA) RNA: GGGAGUUCUACAGUCCGACGAUCCAAAAAGUGUUUUUCAGACCUCGGUAUUCCUAAUGUGGGAUGUGACUUUAUUUUAUUUUCCGCCGCAAAUUUGGAUGCCGACUGACAGACACCGCUGAAUGUCUUAAUAAAUUUAAAUUUCAACAGAGGAUUGAGCAUCA and report
Response line: 0.813

Prompt line: // repeat for chr12:39553730:39553837:-|3pUTR|ENSG00000173208|unk|FALSE|unique (ssRNA) RNA: GGGAGUUCUACAGUCCGACGAUCGAAGUAUGUUAAGCUAAGCACAGAGAAAAAAAGGCAGCAAGACAUGUUUUAUAAGAUUUUAGCAUUAAGGAAGUAUAUGAUCUGACUUUUCAGAAGAAAAUAAACAAAUGCAUUAUGUAACAACAGAGGAUUGAGCAUCA and report
Response line: 0.997

Prompt line: // repeat for chr8:58582127:58582250:+|3pUTR|ENSG00000137575|unk|FALSE|bound_elsewhere (ssRNA) RNA: GGGAGUUCUACAGUCCGACGAUCUUCAUAUUACUUUAGUUCUAUAGCAUACUUGCAUCUUUAACAUGCUAUCAUAGUACAUUUAGAAUGAUUGCCUUUGAUUUUUUUUUUAAAUUCUGUGUGUGUGUGUGUAAAAUGCCAAUUCAACAGAGGAUUGAGCAUCA and report
Response line: 5

Prompt line: // repeat for chr13:52036708:52036809:-|3pUTR|ENSG00000197168|unk|FALSE|unique (ssRNA) RNA: GGGAGUUCUACAGUCCGACGAUCGUAGAACUUUUGAAUAUAGCCAUUAAUAUUUUUACUUUAAAGUUUCUAUUAAGAAAUCUUAGGCCGGGCAGUCUCAUCACUUUGGGAGGCCAAGGCAGGCAGAUCAUGAGGUCAGGAGUUCAACAGAGGAUUGAGCAUCA and report
Response line: 21

Prompt line: // repeat for chr13:52036708:52036809:-|3pUTR|ENSG00000197168|unk|total|mutant (ssRNA) RNA: GGGAGUUCUACAGUCCGACGAUCGCCGAACUUUUGAAUACCGCCAUUAAUAUUUUUACUUUAAAGUUUCUAUUAAGAAAUCUCCGGCCGGGCAGUCUCAUCACUUUGGGAGGCCAAGGCAGGCAGAUCAUGAGGUCAGGAGUUCAACAGAGGAUUGAGCAUCA and report
Response line: 2.85

Prompt line: // repeat for chr6:11183298:11183399:-|3pUTR|ENSG00000111859|msi1|total|mutant (ssRNA) RNA: GGGAGUUCUACAGUCCGACGAUCACAUUUCACAUUUUUAAAACCAAAUGUUCAAUCUGUAUUACUCUUUGCCGUCUUGUAUGCCGAGGCUAUUUUUAAAUCAUUAAAUUUUCCGAUCUCUGUUUUCACCGCCACUGGGUUUUCCAACAGAGGAUUGAGCAUCA and report
Response line: 1.08

Prompt line: // repeat for ENSG00000136451:be:win_3151|3pUTR|ENSG00000136451|bound_else_gene|NA|bound_elsewhere_windowed (ssRNA) RNA: GGGAGUUCUACAGUCCGACGAUCUGAGACAGACUUCCUACAUCAGGGACAGGUAUCUGUGUGUCAUUAUACAAAACAGUUCUAGGGGGUUGAACUACAUAGUAAAAAAAUAAAAUAAAUAGUACUUAGUGUAAAAUAAUUUUACAACAGAGGAUUGAGCAUCA and report
Response line: 44

Prompt line: // repeat for chr6:152987361:152990084:-|three_prime_utr|ENSG00000112031|control|control|control (ssRNA) RNA: GGGAGUUCUACAGUCCGACGAUCAGAUUAUCUACUGGAUGAACUUGUACAGUCAUUGAAGGAAUACGCCGAUUAUGAAUCUUUAGUAGAAAUUAUUUCCCAAAAAGUUUAAGUUGAUUUGUUAUUUAUAGACUUUCGUAGCUUCAACAGAGGAUUGAGCAUCA and report
Response line: 1.84

Prompt line: // repeat for chr7:107202531:107202632:-|3pUTR|ENSG00000164597|msi1|total|mutant (ssRNA) RNA: GGGAGUUCUACAGUCCGACGAUCUAUUCUGAGAACUCAUAAAUAAAAUUCAGCCAAGAUUAAUCAAUCAAUCAAUCAAUCAGCCGACGUCAGAGAUAAGCAACUUUUUUUUCCAUUUAUUUGAAAUAAUAUACAAGAAUACCGCAACAGAGGAUUGAGCAUCA and report
Response line: 1.94
